assay.summary: IUF_NPC5_oligodendrocyte_differentiation_120hr: Leibniz Research Institute for Environmental Medicine (IUF) 120-hour Oligodendrocyte Differentiation Assay (NPC5) (AID 2284304);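 note: primary human fetal neural progenitor spheres plated to migrate and differentiate; share of O4-positive cells among Hoechst nuclei found by CNN image analysis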
Results filed as inconclusive are left out. Calls of active or inactive are those of the source. Rule for the calls: active = hit-call score of the fitted dose curve at least 0.9, where 1 is the maximum; inconclusive = response in the unintended direction; inactive = score below 0.9.
Write down one outcome, taken from active, inactive

Solved cases (5 shown):
molecule	label.value
CC1(C)[C@H](C(=O)O[C@H](C#N)c2cccc(Oc3ccccc3)c2)[C@@H]1/C=C(\Cl)C(F)(F)F	active
CC(C)[C@@H](Nc1ccc(C(F)(F)F)cc1Cl)C(=O)OC(C#N)c1cccc(Oc2ccccc2)c1 (stereo partly specified)	active
Cc1cc(C(F)(C(F)(F)F)C(F)(F)F)ccc1NC(=O)c1cccc(I)c1C(=O)NC(C)(C)CS(C)(=O)=O	active
CS(=O)(=O)c1ccc(C(=O)C2C(=O)CCCC2=O)c(Cl)c1COCC(F)(F)F	inactive
O=S1OC[C@@H]2[C@H](CO1)[C@]1(Cl)C(Cl)=C(Cl)[C@@]2(Cl)C1(Cl)Cl (stereo partly specified)	active

Consider the additional molecule presented here.
Lookup: Given OC(Cc1ccccc1Cl)(Cn1[nH]cnc1=S)C1(Cl)CC1 (stereo unspecified) , state the outcome it received in this test.
Found: active
